System: Plutella xylostella
Assay: Plutella xylostella greenhouse spray test on cauliflower and Bt cauliflower (cry9C)
Type: in vivo
Conditions: 10 g active substance/ha; 7 DAA; cauliflower
METRIC: % feeding damage

{"COMPOUND": "CS/C(C)=N\\OC(=O)N(C)SN(C)C(=O)O/N=C(\\C)SC [Thiodicarb]", "TARGET OR SYSTEM": "Plutella xylostella", "% feeding damage": "15%"}

Problem: Please look up its % feeding damage: C/C(=N\C#N)N(C)Cc1ccc(Cl)nc1 [Acetamiprid]
Result: 15%

Problem: Also check N#Cc1nn(-c2c(Cl)cc(C(F)(F)F)cc2Cl)c(N)c1[S+]([O-])C(F)(F)F (stereo not shown) [Fipronil]
Result: 10%

Problem: Would you mind doing CCc1nn(C)c(C(=O)NCc2ccc(Oc3ccc(C)cc3)cc2)c1Cl [Tolfenpyrad] as well?
Result: 10%

---

Tested on: Plutella xylostella
Experiment: Plutella xylostella greenhouse spray test on cauliflower and Bt cauliflower (cry9C)
Type: in vivo
Conditions: 10 g active substance/ha; 7 DAA; cauliflower
Below, each entry is listed alongside its reported % mortality.
State the answer as a number, implicitly in %.

{"MOLECULE": "C/C(=N\\C#N)N(C)Cc1ccc(Cl)nc1 [Acetamiprid]", "% mortality, %": 0}
{"MOLECULE": "CCc1nn(C)c(C(=O)NCc2ccc(Oc3ccc(C)cc3)cc2)c1Cl [Tolfenpyrad]", "% mortality, %": 0}
{"MOLECULE": "N#Cc1nn(-c2c(Cl)cc(C(F)(F)F)cc2Cl)c(N)c1[S+]([O-])C(F)(F)F (stereo not shown) [Fipronil]", "% mortality, %": 50}

Consider the record given below.
Problem: Could you tell me which % mortality is on file for CS/C(C)=N\OC(=O)N(C)SN(C)C(=O)O/N=C(\C)SC [Thiodicarb] ?
Result: 0

---

System: Plutella xylostella
Experiment: Plutella xylostella greenhouse spray test on cauliflower and Bt cauliflower (cry9C)
Type: in vivo
Details: 30 g active substance/ha; 4 DAA; cauliflower
Measured % mortality of individual entries
Give the number first and the unit second.

Problem: Recall the recorded % mortality for N#Cc1nn(-c2c(Cl)cc(C(F)(F)F)cc2Cl)c(N)c1[S+]([O-])C(F)(F)F (stereo not shown) with Plutella xylostella and state it.
Result: 100%

---

System: Plutella xylostella
Assay: Plutella xylostella greenhouse spray test on cauliflower and Bt cauliflower (cry9C)
Format: in vivo
Details: 10 g active substance/ha; 4 DAA; Bt cauliflower
METRIC: % mortality (%)
Quick note: give the figure in %, leave out the unit.

{"MOLECULE": "CS/C(C)=N\\OC(=O)N(C)SN(C)C(=O)O/N=C(\\C)SC", "TARGET OR SYSTEM": "Plutella xylostella", "% mortality (%)": 100}

Problem: Find % mortality (Plutella xylostella) for the entry `C/C(=N\C#N)N(C)Cc1ccc(Cl)nc1`
Result: 100

Problem: Note, next up: `CCc1nn(C)c(C(=O)NCc2ccc(Oc3ccc(C)cc3)cc2)c1Cl`
Result: 50

Problem: # iterate: N#Cc1nn(-c2c(Cl)cc(C(F)(F)F)cc2Cl)c(N)c1[S+]([O-])C(F)(F)F (stereo not shown)
Result: 100

---

Tested on: Plutella xylostella
Test: Plutella xylostella greenhouse spray test on cauliflower and Bt cauliflower (cry9C)
Format: in vivo
Settings: 10 g active substance/ha; 2 DAA; Bt cauliflower
Protocol: Seven-week-old cauliflower plants (ordinary cauliflower, variety: Marner Allfrüh) and Bt cauliflower ([…], contains cry9C) were sprayed with the test insecticides with the aid of a track sprayer (200 l/ha). After drying, each of the plants was infected with 5 L2 larvae and 5 L3 larvae of Plutella xylostella. After 2, 4 and 7 days (DAA), feeding damage and mortality were scored. The test was carried out in a greenhouse at 23° C. and a relative atmospheric humidity of 60%.
METRIC: % feeding damage

{"COMPOUND": "C/C(=N\\C#N)N(C)Cc1ccc(Cl)nc1", "METRIC": "% feeding damage", "RESULT": "0%"}
{"COMPOUND": "CCc1nn(C)c(C(=O)NCc2ccc(Oc3ccc(C)cc3)cc2)c1Cl", "METRIC": "% feeding damage", "RESULT": "10%"}
{"COMPOUND": "CS/C(C)=N\\OC(=O)N(C)SN(C)C(=O)O/N=C(\\C)SC", "METRIC": "% feeding damage", "RESULT": "0%"}

Proceeding to the next compound to report its % feeding damage.
Problem: Query: % feeding damage; subject: N#Cc1nn(-c2c(Cl)cc(C(F)(F)F)cc2Cl)c(N)c1[S+]([O-])C(F)(F)F (stereo not shown)
Result: 0%
